EXPERIMENT DESCRIPTION: JACKPOT2 MAD urinary PK (Day 14)
Assay type: in vivo, human
CONDITION DETAILS: human, urine and plasma, oral; 50 mg once daily 14 days; Ae0-t/AUC0-t; mean (SD); read-out: CLr (converted)
PROPERTY: CL renal (mL/min)
API: value field is a number in mL/min; no unit string.

Lookup: Can you look up the measured CL renal of COc1nn(C)cc1Nc1nccc(-c2c[nH]c3c(NC(=O)[C@@H](C)N4CCN(C)CC4)cccc23)n1 for me?
Found: 61.5

====

EXPERIMENT DESCRIPTION: JACKPOT3 single-ascending-dose plasma PK, healthy Chinese participants
Type: in vivo, human
CONDITION DETAILS: human, plasma; single oral administration, across the dose range, Chinese participants; read-out: median tmax
PROPERTY: Tmax

Lookup: Which Tmax is reported for this molecule? COc1nn(C)cc1Nc1nccc(-c2c[nH]c3c(NC(=O)[C@@H](C)N4CCN(C)CC4)cccc23)n1
Found: 1.75 to 3 h

====

EXPERIMENT DESCRIPTION: JACKPOT2 single-ascending-dose plasma PK, healthy participants in USA
Format: in vivo, human
CONDITION DETAILS: human, plasma; single oral administration, across the dose range, US participants; read-out: median tmax
PROPERTY: Tmax

Lookup: Look up Tmax for this compound: COc1nn(C)cc1Nc1nccc(-c2c[nH]c3c(NC(=O)[C@@H](C)N4CCN(C)CC4)cccc23)n1
Found: 2.5 to 8 h

====

EXPERIMENT DESCRIPTION: JACKPOT2 single-ascending-dose plasma PK, healthy participants in USA
Type: in vivo, human
CONDITION DETAILS: human, plasma, oral; single dose 50 mg; median (min, max); read-out: tmax
PROPERTY: Tmax (h)
Write down the numeric answer in h and omit the unit.

Lookup: Which Tmax is listed for COc1nn(C)cc1Nc1nccc(-c2c[nH]c3c(NC(=O)[C@@H](C)N4CCN(C)CC4)cccc23)n1 [golidocitinib] ?
Found: 6

====

EXPERIMENT DESCRIPTION: JACKPOT2 food effect cohort (50 mg, fasted vs high-fat meal)
Assay type: in vivo, human
CONDITION DETAILS: human, plasma, oral, 50 mg, 50 mg single dose, Fasted (Reference), N = 12; read-out: AUC0-t, Geometric mean (%CV)
PROPERTY: AUC(0-t) (ng·h/mL)
Return type: number; implicit unit ng·h/mL.

Lookup: Quick check: AUC(0-t) of COc1nn(C)cc1Nc1nccc(-c2c[nH]c3c(NC(=O)[C@@H](C)N4CCN(C)CC4)cccc23)n1 [golidocitinib] ?
Found: 2770

====

EXPERIMENT DESCRIPTION: JACKPOT2 food effect cohort (50 mg, fasted vs high-fat meal)
Type: in vivo, human
CONDITION DETAILS: human, plasma, oral, 50 mg, 50 mg single dose, High-fat meal (Test), N = 11; read-out: AUC0-t, Geometric mean (%CV)
Experimental: A total of 42 and 24 healthy participants were enrolled in part A and part B, respectively. […] For food effect assessment, log-transformed PK parameters (AUC0-t, AUC0-inf, and Cmax) of golidocitinib were analyzed using a mixed-effect model including terms for study treatment (fasted and fed) as fixed effects, and participants nested within treatment as a random effect. […]
PROPERTY: AUC(0-t) (ng·h/mL)
Reply with just the number (in ng·h/mL).

Lookup: // query AUC(0-t) value for entry COc1nn(C)cc1Nc1nccc(-c2c[nH]c3c(NC(=O)[C@@H](C)N4CCN(C)CC4)cccc23)n1 [golidocitinib]
Found: 3230

====

EXPERIMENT DESCRIPTION: JACKPOT2 multiple-ascending-dose plasma PK (once daily, 14 days)
Type: in vivo, human
CONDITION DETAILS: human, plasma, oral, 100 mg, 100 mg once daily, Day 1; geometric mean (CV%)
PROPERTY: Cmax

Lookup: Give its Cmax value. Item: COc1nn(C)cc1Nc1nccc(-c2c[nH]c3c(NC(=O)[C@@H](C)N4CCN(C)CC4)cccc23)n1 [golidocitinib]
Found: 149 ng/mL

====

EXPERIMENT DESCRIPTION: JACKPOT3 single-ascending-dose plasma PK, healthy Chinese participants
Type: in vivo, human
CONDITION DETAILS: human, plasma, oral; single dose 25 mg; geometric mean (CV%)
PROPERTY: AUC(0-inf) (ng·h/mL)
Kindly answer with a numeric value in ng·h/mL, unit omitted.

Lookup: Sample COc1nn(C)cc1Nc1nccc(-c2c[nH]c3c(NC(=O)[C@@H](C)N4CCN(C)CC4)cccc23)n1 — what was its AUC(0-inf)?
Found: 1230

====

EXPERIMENT DESCRIPTION: JACKPOT2 multiple-ascending-dose plasma PK (once daily, 14 days)
Assay type: in vivo, human
CONDITION DETAILS: human, plasma, oral, 50 mg, 50 mg once daily, Day 1; geometric mean (CV%)
PROPERTY: Cmax (ng/mL)
Give the quantity in ng/mL, number only.

Lookup: # query: Cmax of entry COc1nn(C)cc1Nc1nccc(-c2c[nH]c3c(NC(=O)[C@@H](C)N4CCN(C)CC4)cccc23)n1 [golidocitinib]
Found: 62.1

====

EXPERIMENT DESCRIPTION: JACKPOT2 single-ascending-dose plasma PK, healthy participants in USA
Format: in vivo, human
CONDITION DETAILS: human, plasma, oral; single dose 20 mg; median (min, max); read-out: tmax
PROPERTY: Tmax (h)
Reply numerically in h, unit not repeated.

Lookup: Fill blank: measured Tmax of the compound COc1nn(C)cc1Nc1nccc(-c2c[nH]c3c(NC(=O)[C@@H](C)N4CCN(C)CC4)cccc23)n1 is ____.
Found: 8

====

EXPERIMENT DESCRIPTION: JACKPOT2 multiple-ascending-dose plasma PK (once daily, 14 days)
Assay type: in vivo, human
CONDITION DETAILS: human, plasma, oral, 100 mg, 100 mg once daily, Day 1; median (min, max)
Text: A total of 42 and 24 healthy participants were enrolled in part A and part B, respectively. In part A, a total of 30 participants were randomized into 5 SAD cohorts (n = 6 per cohort) and received a single dose of golidocitinib at different dose levels or a matching placebo in a 4:2 ratio. In the food effect cohort, a total of 12 participants were enrolled and received the study drug under fasted or fed conditions, with a sequential design. […]
PROPERTY: Tmax (h)
Lab book: enter the figure in h, no units written.

Lookup: Bench note: what Tmax did COc1nn(C)cc1Nc1nccc(-c2c[nH]c3c(NC(=O)[C@@H](C)N4CCN(C)CC4)cccc23)n1 show?
Found: 4

====

EXPERIMENT DESCRIPTION: JACKPOT3 single-ascending-dose plasma PK, healthy Chinese participants
Assay type: in vivo, human
CONDITION DETAILS: human, plasma, oral; single dose 100 mg; median (min, max); read-out: t1/2 (converted)
PROPERTY: half-life (min)
Quick reminder: number only, in min, skip the unit.

Lookup: Recorded half-life of COc1nn(C)cc1Nc1nccc(-c2c[nH]c3c(NC(=O)[C@@H](C)N4CCN(C)CC4)cccc23)n1 , please.
Found: 1700

====

EXPERIMENT DESCRIPTION: JACKPOT3 SAD urinary PK (100 mg)
Format: in vivo, human
CONDITION DETAILS: human, urine and plasma, oral; single dose 100 mg; Ae0-t/AUC0-t; mean (SD)
PROPERTY: CL renal (mL/min)
Write the value in mL/min as a bare number.

Lookup: Quick one: CL renal for COc1nn(C)cc1Nc1nccc(-c2c[nH]c3c(NC(=O)[C@@H](C)N4CCN(C)CC4)cccc23)n1 [golidocitinib] ?
Found: 67.8

====

EXPERIMENT DESCRIPTION: JACKPOT2 multiple-ascending-dose plasma PK (once daily, 14 days)
Format: in vivo, human
CONDITION DETAILS: human, plasma, oral, 50 mg, 50 mg once daily, Day 1; median (min, max)
PROPERTY: Tmax
Answer format reminder: number followed by unit.

Lookup: Dear colleague, I am looking for the recorded Tmax of the following molecule: COc1nn(C)cc1Nc1nccc(-c2c[nH]c3c(NC(=O)[C@@H](C)N4CCN(C)CC4)cccc23)n1
Found: 6 h

====

EXPERIMENT DESCRIPTION: JACKPOT2 single-ascending-dose plasma PK, healthy participants in USA
Type: in vivo, human
CONDITION DETAILS: human, plasma, oral; single dose 100 mg; mean (SD); read-out: Vz/F
PROPERTY: Vd/F
// unit must come after the numeric part

Lookup: Which value of Vd/F has been reported for COc1nn(C)cc1Nc1nccc(-c2c[nH]c3c(NC(=O)[C@@H](C)N4CCN(C)CC4)cccc23)n1 in the records?
Found: 1380 L

====

EXPERIMENT DESCRIPTION: JACKPOT2 single-ascending-dose plasma PK, healthy participants in USA
Type: in vivo, human
CONDITION DETAILS: human, plasma, oral; single dose 20 mg; geometric mean (CV%)
PROPERTY: Cmax (ng/mL)
Quick note: give the figure in ng/mL, leave out the unit.

Lookup: # input compound: COc1nn(C)cc1Nc1nccc(-c2c[nH]c3c(NC(=O)[C@@H](C)N4CCN(C)CC4)cccc23)n1 ; wanted: its Cmax
Found: 18.6
